TARGET ENTITY: GABA-A receptor; anion channel (Bos taurus) (UniProt P10063+P08220+P20237+P08219+P10064+P22300)
PROCEDURE DETAILS: Relative binding to GABA-A receptor in the presence and absence of GABA (GABA shift), Ki(-GABA)/Ki(+GABA)
Format: protein-complex assay
MEASUREMENT TYPE: GABA ratio

smiles_string=CCOC(=O)c1ncn2c1CN(C)C(=O)c1cc(F)ccc1-2 result=0.9
smiles_string=Oc1c(-c2ccccc2)nnc2nc3ccccc3n12 result=1.2
smiles_string=Oc1c(-c2cccs2)nnc2nc3ccccc3n12 result=0.97
smiles_string=Oc1ccc(-c2nnc3nc4ccccc4n3c2O)cc1O result=1.2
smiles_string=Oc1c(-c2ccsc2)nnc2nc3ccccc3n12 result=1.2
smiles_string=Cn1c2ccccc2n2c(=O)c(-c3ccccc3)nnc12 result=1.7

###

TARGET ENTITY: GABA-A receptor; anion channel
PROCEDURE DETAILS: Displacement of [3H]- Ro.15-1788 from GABA-A central Benzodiazepine receptor (BzR) of Bovine cerebral cortex membrane
Rule: Ki below 10 nM gives label 1, anything at or above gives label 0.

molecule=Oc1ccc(-c2nnc3nc4ccccc4n3c2O)cc1 target_entity="GABA-A receptor; anion channel" assigned_label="label 0"
molecule=Oc1c(-c2ccsc2)nnc2nc3ccccc3n12 target_entity="GABA-A receptor; anion channel" assigned_label="label 0"
molecule=Oc1c(-c2cccs2)nnc2nc3ccccc3n12 target_entity="GABA-A receptor; anion channel" assigned_label="label 0"
molecule=Oc1c(-c2ccccc2)nnc2nc3ccccc3n12 target_entity="GABA-A receptor; anion channel" assigned_label="label 0"
molecule="CCOC(=O)c1ncn2c1CN(C)C(=O)c1cc(F)ccc1-2 [FLUMAZENIL]" target_entity="GABA-A receptor; anion channel" assigned_label="label 1"
molecule=Oc1ccc(-c2nnc3nc4ccccc4n3c2O)cc1O target_entity="GABA-A receptor; anion channel" assigned_label="label 0"

###

TARGET ENTITY: GABA-A receptor; anion channel (Bos taurus) (UniProt P10063+P08220+P20237+P08219+P10064+P22300)
PROCEDURE DETAILS: Inhibition of […] [3H]- Ro.15-1788 binding to benzodiazepine receptors in bovine brain membrane.
Format: cell membranes
Measured inhibition accompanies every entry in the list below.
MEASUREMENT TYPE: inhibition (%)

smiles_string=Oc1ccc(-c2nnc3nc4ccccc4n3c2O)cc1 unit=% result=99
smiles_string=COc1ccc(-c2nnc3nc4ccccc4n3c2O)cc1OC unit=% result=17
smiles_string=COc1ccc(-c2nnc3nc4ccccc4n3c2O)cc1 unit=% result=89
smiles_string=Oc1ccc(-c2nnc3nc4ccccc4n3c2O)cc1O unit=% result=99
smiles_string=Oc1c(-c2ccsc2)nnc2nc3ccccc3n12 unit=% result=85
smiles_string=Cc1ccc(-c2nnc3nc4ccccc4n3c2O)cc1 unit=% result=56
smiles_string=Cn1c2ccccc2n2c(=O)c(-c3cccs3)nnc12 unit=% result=63
smiles_string=COc1ccc(-c2nnc3n(C)c4ccccc4n3c2=O)cc1 unit=% result=53
smiles_string=Cc1ccc(-c2nnc3nc4ccccc4n3c2O)s1 unit=% result=83
smiles_string=Cn1c2ccccc2n2c(=O)c(-c3ccccc3)nnc12 unit=% result=92
smiles_string=Oc1c(-c2ccc(Cl)cc2)nnc2nc3ccccc3n12 unit=% result=34
smiles_string=Cn1c2ccccc2n2c(=O)c(-c3ccc(Cl)cc3)nnc12 unit=% result=30
smiles_string=Oc1cnnc2nc3ccccc3n12 unit=% result=11
smiles_string=Cn1c2ccccc2n2c(=O)c(-c3ccco3)nnc12 unit=% result=68
smiles_string=Oc1c(-c2ccccc2)nnc2nc3ccccc3n12 unit=% result=97
smiles_string=Oc1c(-c2cccs2)nnc2nc3ccccc3n12 unit=% result=99
smiles_string=Oc1c(-c2ccco2)nnc2nc3ccccc3n12 unit=% result=93
smiles_string=Cc1nnc2nc3ccccc3n2c1O unit=% result=26
